Biological target: SIRT1 (Homo sapiens, UniProt Q96EB6)
Test: Trp mass spectrometry assay (SIRT1 activation)
Type: biochemical
Conditions: concentration of test compound that results in 150% activation of SIRT1; Trp peptide substrate
result type: Tryp AVG EC1.5 (μM)

1) O=C(Nc1ccccn1)N1c2nc(-c3cncc(C(F)(F)F)c3)ccc2N2CC[C@H]1C2 | A (EC1.5<1 μM)
2) O=C(Nc1cccnc1)N1c2nc(-c3cncc(C(F)(F)F)c3)ccc2N2CC[C@H]1C2 | A (EC1.5<1 μM)
3) N#Cc1ccccc1-c1ccc2c(n1)N(C(=O)Nc1cccnc1)[C@H]1CCCN2C1 | B (EC1.5 1-25 μM)
4) O=C(Nc1cnccn1)N1c2nc(-c3ccnc(N4CC[C@H](F)C4)c3)ccc2N2CC[C@H]1C2 | A (EC1.5<1 μM)
5) O=C(Nc1cccnc1)N1c2nc(-c3cnn(C4CCCC4)c3)ccc2N2CC[C@H]1C2 | B (EC1.5 1-25 μM)

Input: Provide the documented Tryp AVG EC1.5 (μM) with SIRT1 (Homo sapiens, UniProt Q96EB6) as the system for O=C(NCCc1cccnc1)N1c2nc(-c3cccc(C(F)(F)F)c3)ccc2N2CC[C@H]1C2
Output: B (EC1.5 1-25 μM)

Input: Provide the documented Tryp AVG EC1.5 (μM) with SIRT1 (Homo sapiens, UniProt Q96EB6) as the system for O=C(Nc1ccncc1)N1c2nc(-c3cccc(Cl)c3)ccc2N2CCC[C@H]1C2
Output: A (EC1.5<1 μM)

Input: Provide the documented Tryp AVG EC1.5 (μM) with SIRT1 (Homo sapiens, UniProt Q96EB6) as the system for N#Cc1ccccc1-c1ccc2c(n1)N(C(=O)Nc1cccnn1)[C@H]1CCCN2C1
Output: B (EC1.5 1-25 μM)

* * *

Target: SIRT1 (Homo sapiens, UniProt Q96EB6)
Experiment: Trp mass spectrometry assay (SIRT1 activation)
Format: biochemical
Settings: Trp mass spectrometry assay; EC1.5 = concentration of test compound that results in 150% activation of SIRT1
result type: Tryp AVG EC1.5 (μM)

Guide cases for Tryp AVG EC1.5 (μM), answers given:
1. Cc1nn(C)cc1NC(=O)N1c2nc(-c3cccc(C(F)(F)F)c3)ccc2N2CC[C@H]1C2 | B (EC1.5 1-25 μM)
2. O=C(Nc1cnccn1)N1c2nc(-c3cccc(Cl)c3)ccc2N2CC[C@H]1C2 | A (EC1.5<1 μM)
3. N#Cc1cccc(-c2ccc3c(n2)N(C(=O)Nc2ccncn2)[C@H]2CCN3C2)c1 | A (EC1.5<1 μM)
4. COc1cc(NC(=O)N2c3nc(-c4cccc(Cl)c4)ccc3N3CC[C@H]2C3)nc(OC)n1 | B (EC1.5 1-25 μM)

Input: Need Tryp AVG EC1.5 (μM), item Cn1cc(NC(=O)N2c3nc(-c4cccc(N5CCCC5)c4)ccc3N3CC[C@H]2C3)cn1
Output: B (EC1.5 1-25 μM)

Input: Need Tryp AVG EC1.5 (μM), item O=C(Nc1cccc(-c2cnco2)c1)N1c2nc(-c3cccc(OC(F)(F)F)c3)ccc2N2CC[C@H]1C2
Output: A (EC1.5<1 μM)

Input: Need Tryp AVG EC1.5 (μM), item O=C(Nc1cnccn1)N1c2nc(-c3cccc(OC(F)(F)F)c3)ccc2N2CC[C@H]1C2
Output: A (EC1.5<1 μM)

Input: Need Tryp AVG EC1.5 (μM), item N#Cc1cccc(-c2ccc3c(n2)N(C(=O)Nc2ccncc2F)[C@H]2CCN3C2)c1
Output: B (EC1.5 1-25 μM)

* * *

Biological target: SIRT1 (Homo sapiens)
Experiment: Trp mass spectrometry assay (SIRT1 activation)
Format: biochemical
Conditions: Trp mass spectrometry assay; EC1.5 = concentration giving 150% activation of SIRT1
result type: Tryp AVG EC1.5 (μM)

Guide cases for Tryp AVG EC1.5 (μM), answers given:
1) CC(C)(C)OC(=O)NCC#Cc1ccc(NC(=O)N2c3nc(-c4cccc(C(F)(F)F)c4)ccc3N3CCC[C@H]2C3)cc1-c1cnco1 [Example 753] | A (EC1.5<1 μM)
2) NCCCc1ccc(NC(=O)N2c3nc(-c4cccc(C(F)(F)F)c4)ccc3N3CC[C@H]2C3)cc1-c1cnco1 [Example 765] | A (EC1.5<1 μM)
3) O=C(Nc1nccc(N2CCNCC2)n1)N1c2nc(-c3cccc(C(F)(F)F)c3)ccc2N2CC[C@H]1C2 [Example 745] | B (EC1.5 1-25 μM)
4) CN1CCN(c2ccnc(NC(=O)N3c4nc(-c5cccc(C(F)(F)F)c5)ccc4N4CC[C@H]3C4)n2)CC1 [Example 742] | A (EC1.5<1 μM)
5) O=C(Nc1cccc(-c2cnco2)c1)N1c2nc(-c3cncc(F)c3)ccc2N2CC[C@H]1C2 [Example 722] | A (EC1.5<1 μM)

Input: Need Tryp AVG EC1.5 (μM), item O=C(Nc1cccnc1)N1c2nc(-c3cncc(C(F)(F)F)c3)ccc2N2C[C@@H](O)[C@H]1C2 [Example 705]
Output: B (EC1.5 1-25 μM)

Input: Need Tryp AVG EC1.5 (μM), item N=C(N)NCc1ncc(-c2cccc(NC(=O)N3c4nc(-c5cccc(C(F)(F)F)c5)ccc4N4CC[C@H]3C4)c2)o1 [Example 776]
Output: A (EC1.5<1 μM)

* * *

Biological target: SIRT1 (Homo sapiens, UniProt Q96EB6)
Sequence (Q96EB6 1-747): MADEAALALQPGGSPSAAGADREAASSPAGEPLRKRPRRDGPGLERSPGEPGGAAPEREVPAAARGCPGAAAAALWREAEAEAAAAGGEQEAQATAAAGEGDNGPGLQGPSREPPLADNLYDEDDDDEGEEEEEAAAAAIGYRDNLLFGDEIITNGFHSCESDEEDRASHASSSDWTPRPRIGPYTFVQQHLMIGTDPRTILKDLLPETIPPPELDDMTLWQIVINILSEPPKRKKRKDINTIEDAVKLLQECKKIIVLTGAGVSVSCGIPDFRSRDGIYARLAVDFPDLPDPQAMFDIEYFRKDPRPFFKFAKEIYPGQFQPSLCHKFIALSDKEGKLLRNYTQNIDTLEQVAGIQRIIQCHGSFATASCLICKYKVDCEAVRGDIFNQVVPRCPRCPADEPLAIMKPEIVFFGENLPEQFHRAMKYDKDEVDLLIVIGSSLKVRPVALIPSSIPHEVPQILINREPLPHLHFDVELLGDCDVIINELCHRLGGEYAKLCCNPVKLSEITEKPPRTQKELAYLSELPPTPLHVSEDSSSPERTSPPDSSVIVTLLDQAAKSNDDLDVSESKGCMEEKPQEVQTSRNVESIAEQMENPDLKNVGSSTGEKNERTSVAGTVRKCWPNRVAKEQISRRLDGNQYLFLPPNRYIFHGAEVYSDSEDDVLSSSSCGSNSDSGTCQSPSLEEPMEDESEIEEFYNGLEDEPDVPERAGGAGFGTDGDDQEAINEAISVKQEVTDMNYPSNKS
Experiment: Trp mass spectrometry assay (SIRT1 activation)
Assay type: biochemical
Settings: concentration of test compound that results in 150% activation of SIRT1; Trp peptide substrate
result type: Tryp AVG EC1.5 (μM)

Guide cases for Tryp AVG EC1.5 (μM), answers given:
1) O=C(Nc1cnccn1)N1c2nc(-c3cncc(F)c3)ccc2N2CCC[C@H]1C2 | B (EC1.5 1-25 μM)
2) Cc1ccncc1-c1ccc2c(n1)N(C(=O)Nc1cncc(F)c1)[C@H]1CCCN2C1 | B (EC1.5 1-25 μM)
3) O=C(Nc1cnccn1)N1c2nc(-c3cccc(N4CCOCC4)c3)ccc2N2CCC[C@H]1C2 | B (EC1.5 1-25 μM)
4) O=C(Nc1cccc(-c2cnco2)n1)N1c2nc(-c3cccc(C(F)(F)F)c3)ccc2N2CCC1CC2 | A (EC1.5<1 μM)
5) Cc1cc(C)nc(NC(=O)N2c3nc(N4CCCC(C(F)(F)F)C4)ccc3N3CCC[C@H]2C3)c1 (stereo partly shown) | B (EC1.5 1-25 μM)
6) O=C(Nc1cccc(C2CCNC2)c1)N1c2nc(-c3cccc(C(F)(F)F)c3)ccc2N2CC[C@H]1C2 (stereo partly shown) | A (EC1.5<1 μM)
7) N#Cc1cc(-c2ccc3c(n2)N(C(=O)Nc2cnccn2)[C@H]2CCN3C2)ccc1F | A (EC1.5<1 μM)
8) O=C(Nc1ccncc1)N1c2nc(N3CCCC(C(F)(F)F)C3)ccc2N2CCC[C@@H]1C2 (stereo partly shown) | B (EC1.5 1-25 μM)

Input: Need Tryp AVG EC1.5 (μM), item Cn1cc(-c2ccc3c(n2)N(C(=O)Nc2ccccn2)[C@H]2CCN3C2)cn1
Output: B (EC1.5 1-25 μM)

Input: Need Tryp AVG EC1.5 (μM), item O=C(Nc1ccc(F)cn1)N1c2nc(-c3cncc(F)c3)ccc2N2CCC[C@H]1C2
Output: A (EC1.5<1 μM)

Input: Need Tryp AVG EC1.5 (μM), item O=C(Nc1nccs1)N1c2nc(N3CCCC(C(F)(F)F)C3)ccc2N2CCC[C@H]1C2 (stereo partly shown)
Output: A (EC1.5<1 μM)

Input: Need Tryp AVG EC1.5 (μM), item O=C(Nc1ccncn1)N1c2nc(N3CCCC(C(F)(F)F)C3)ccc2N2CCC[C@@H]1C2 (stereo partly shown)
Output: C (EC1.5>25 μM)

Input: Need Tryp AVG EC1.5 (μM), item COC(=O)N1CCCN(c2ccc3c(n2)N(C(=O)Nc2ccncn2)[C@H]2CCCN3C2)CC1
Output: B (EC1.5 1-25 μM)

Input: Need Tryp AVG EC1.5 (μM), item N#Cc1ccccc1-c1ccc2c(n1)N(C(=O)Nc1cnccn1)[C@H]1CCCN2C1
Output: B (EC1.5 1-25 μM)

Input: Need Tryp AVG EC1.5 (μM), item Cc1ccncc1-c1ccc2c(n1)N(C(=O)Nc1ccncn1)[C@H]1CCCN2C1
Output: C (EC1.5>25 μM)

Input: Need Tryp AVG EC1.5 (μM), item N#Cc1cccc(-c2ccc3c(n2)N(C(=O)Nc2cncc(F)c2)[C@@H]2CCCN3C2)c1
Output: B (EC1.5 1-25 μM)
